Target: C-cell calcium receptor (Rattus norvegicus, UniProt P48442)
Construct: Neoplastic C-cells derived from a rat medullary thyroid carcinoma (rMTC 6-23) were obtained from American Type Culture Collection; host or cells: rMTC 6-23 cells
Sequence (P48442 20-1079): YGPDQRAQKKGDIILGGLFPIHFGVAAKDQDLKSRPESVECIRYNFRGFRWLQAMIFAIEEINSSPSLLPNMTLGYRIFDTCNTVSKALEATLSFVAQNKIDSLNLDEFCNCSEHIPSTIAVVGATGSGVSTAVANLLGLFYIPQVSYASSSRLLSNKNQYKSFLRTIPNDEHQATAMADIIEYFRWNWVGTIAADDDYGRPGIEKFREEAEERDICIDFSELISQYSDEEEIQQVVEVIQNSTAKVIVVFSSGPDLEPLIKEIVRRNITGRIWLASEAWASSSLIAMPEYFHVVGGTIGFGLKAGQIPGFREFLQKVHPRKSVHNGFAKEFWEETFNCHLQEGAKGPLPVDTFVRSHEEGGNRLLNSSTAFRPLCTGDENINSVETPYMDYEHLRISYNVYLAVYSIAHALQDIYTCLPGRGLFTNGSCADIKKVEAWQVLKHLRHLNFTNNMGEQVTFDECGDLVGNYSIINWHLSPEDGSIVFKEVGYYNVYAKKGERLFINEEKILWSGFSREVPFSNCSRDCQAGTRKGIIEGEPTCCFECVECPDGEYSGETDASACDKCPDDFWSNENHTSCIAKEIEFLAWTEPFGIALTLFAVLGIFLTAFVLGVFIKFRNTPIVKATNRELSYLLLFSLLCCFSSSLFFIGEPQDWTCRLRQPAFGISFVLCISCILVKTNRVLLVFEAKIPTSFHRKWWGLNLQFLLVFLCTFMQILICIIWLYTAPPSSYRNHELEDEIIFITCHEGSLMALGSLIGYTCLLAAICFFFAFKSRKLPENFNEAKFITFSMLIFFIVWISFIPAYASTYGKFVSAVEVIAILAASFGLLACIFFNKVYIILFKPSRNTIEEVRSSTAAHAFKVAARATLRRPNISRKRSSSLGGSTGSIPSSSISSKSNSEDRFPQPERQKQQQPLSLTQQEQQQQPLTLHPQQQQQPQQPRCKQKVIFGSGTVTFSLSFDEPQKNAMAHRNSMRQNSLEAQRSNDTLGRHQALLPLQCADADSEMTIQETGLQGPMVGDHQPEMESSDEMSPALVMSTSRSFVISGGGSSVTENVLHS
Assay: cell-based
Format: cell-based
Conditions: Table 6; rMTC 6-23 cells; read-out: EC50 C-CELL
value.type: pEC50
Note: pEC50 values are expressed as the negative base-10 logarithm of concentration in M.

### Prompt What pEC50 appears in the records for this compound with C-cell calcium receptor (Rattus norvegicus, UniProt P48442)? NCCCNCCCCNCCCNCCCNCCCNC(=O)Cc1c[nH]c2ccccc12 [NPS 019, reference compound]
### Response 5.30

###

Test system: L-type voltage-sensitive Ca^2+ channel
Assay: block of extracellular Ca^2+-induced increases in [Ca^2+]i in rMTC 6-23 cells
Format: cell-based, rat
Details: read-out: IC50 for block of extracellular Ca^2+-induced increases in [Ca^2+]i
value.type: IC50 (nM)
Hi! Could you send only the number? It should be in nM, unit omitted.

### Prompt What IC50 appears in the records for this compound with L-type voltage-sensitive Ca^2+ channel? NCCCNCCCCNCCCNCCCN(O)CCCNC(=O)Cc1c[nH]c2cccc(O)c12
### Response 3000

These measurements were taken from patent US5688938A.
